- System Under Test: AMP-activated protein kinase, AMPK (Homo sapiens) (UniProt P54646+O43741+P54619+Q9UGJ0+Q9Y478+Q13131+Q9UGI9)
- Method Notes: AMP-dependent Kinase enzyme assay. An in vitro enzyme assay that detects ADP turnover that is directly proportional to AMPK activity. This uses naive AMPK that is activated during the assay with MK-8722
- Format: functional
- Design: scale not given: direction of the effect not stated beside the values
- Conditions: 30 µM
Readout: Percent Effect (%)
Please reply with the bare figure in % and do not write the unit itself.

Ask: Reported Percent Effect, compound Cc1nc([C@@H]2C[C@@H]3CCN(C(=O)c4occc4C)C[C@H]3O2)no1 : ____
Result: 6.51

Ask: What value of Percent Effect has been reported for the following compound? O=C(c1ccccn1)N1C[C@@H]2CC[C@H](C1)N(C(=O)CCc1cccs1)C2
Result: 2.15

Ask: Entry Cc1cc(C(=O)N2CCCC2c2nnc3n2CCCCC3)no1 (stereo unspecified) has what Percent Effect?
Result: -6.41

Ask: Which value of Percent Effect has been reported for CCOCCOc1ccccc1C(=O)N1CCCC(c2ncc[nH]2)C1 (stereo unspecified) in the records?
Result: 11.4

Ask: Give the measured Percent Effect of Cc1nnc(C(C)NCC2(c3ccc(Cl)cc3)CCCC2)o1 (stereo unspecified) .
Result: -5.55

Ask: Reported Percent Effect for CCOc1ccc(CN(C)C(=O)NC(C)c2nncn2C)cc1 (stereo unspecified) : what is it?
Result: -8.94

Ask: Look up Percent Effect: CCOCC(=O)N1CCC(Oc2ccc(C(F)(F)F)cn2)CC1
Result: 2.97

Ask: For Cc1n[nH]c(C2CN(C(=O)c3cc(Cl)c[nH]3)CCO2)n1 (stereo unspecified) , what is its reported Percent Effect?
Result: 11.8

Ask: Look at this compound and give its reported Percent Effect. O=C(Cn1c(=O)n(Cc2ccco2)c2ncccc21)Nc1ccccn1
Result: 4.77

Ask: What value of Percent Effect has been recorded for this entry: NC(=O)C1CCCN1Cc1cccc(NC(=O)c2ccsc2)c1 (stereo unspecified)
Result: 0.719

Ask: What value of Percent Effect has been recorded for this entry: Cc1nccn1CC1CCCN1S(=O)(=O)Cc1ccccc1 (stereo unspecified)
Result: 2.14

====

- System Under Test: Tyrosyl-tRNA synthetase, putative (Trypanosoma cruzi (strain CL Brener))
- Method Notes: Trypanosoma cruzi tyrosyl tRNA synthetase (TcYRS) _High Tyrosine SOP; also: in the data most compounds retested in dose-response had high values
- Format: functional
- Parameters: scale not given: direction of the effect not stated beside the values
- Conditions: 30 µM
Provide the recorded Percent Effect for the entries that follow.
Give a bare numeral; the unit % is implied.

Ask: What value of measured Percent Effect is listed for CC(C)OCCOCc1cccc(NC(=O)NCc2ccccn2)c1 ?
Result: 2.15

Ask: Value lookup for Percent Effect; key = CCO[C@@H]1CO[C@@]2(CCCN(Cc3scnc3C)C2)C1
Result: -4.17

Ask: Percent Effect lookup needed for CC(CNc1cncc(-n2cccn2)n1)N(C)c1ccccc1 (stereo unspecified) , thanks.
Result: 0.971

Ask: What Percent Effect value was documented for this compound, Cc1ccc(CCNC(=O)N2CCCC(Cc3nccn3C)C2)cn1 (stereo unspecified) ?
Result: 7.92

Ask: Percent Effect lookup needed for Cc1cnn(CCNCC(O)COc2ccc(C#N)cc2)c1 (stereo unspecified) , thanks.
Result: 5.42

Ask: Fill in: Percent Effect of CCN1CCCC(CNC(=O)C2(c3cccc(Cl)c3)CC2)C1 (stereo unspecified) is ___
Result: 7.29

====

- System Under Test: Ubiquitin-activating enzyme e1, putative (Leishmania donovani (strain BPK282A1))
- Method Notes: Leishmania donovani Ubiquitin Activating Enzyme (LdE1)
- Type: functional
- Parameters: scale not given: direction of the effect not stated beside the values
- Conditions: 30 µM
Results with a measured potency or affinity are listed apart.
Readout: Percent Effect (%)
Express the result in % but write the number alone.

Ask: Tell me the measured Percent Effect of CCCS(=O)(=O)N1CCO[C@H]2[C@H](OCc3ccccn3)CC[C@@H]21 , please.
Result: 8.11

Ask: Fill in the blank: the reported Percent Effect of CN(Cc1nnc(C2CC2)n1C)C1CCN(Cc2ccc(F)cc2)C1 (configuration not stated) is ____.
Result: 18.9

Ask: Would you kindly share the measured Percent Effect for COc1ccccc1CC1CCCN(CCC#N)C1 (configuration not stated) ?
Result: 5.2

Ask: Recorded Percent Effect of Cc1nc(COCc2cnc3n2CCN(C2CCC2)C3C)cs1 (configuration not stated) , please.
Result: 5.33

Ask: Quick check: Percent Effect of O=C1CC(c2cccs2)c2cnn(C3CCCC3)c2N1 (configuration not stated) ?
Result: -5.33

Ask: Value lookup for Percent Effect; key = Cc1cccc(N2CCN(CCNC(=O)C(C)n3cncn3)CC2)c1 (configuration not stated)
Result: 28.9

Ask: Endpoint output: Percent Effect of CCN1CCN(c2ccc(F)cc2C(C)NCc2ccncc2)CC1 (configuration not stated) . Value?
Result: 0

Ask: So what does the record say about Percent Effect for Cc1cc(F)ccc1CN1CCC(O)(CN2CCCCC2)C1 (configuration not stated) ?
Result: 5.33

Ask: What value of measured Percent Effect is listed for Cc1nnc(SCC(=O)N2CCC3(CC2)c2ccccc2CC3O)o1 (configuration not stated) ?
Result: 13

Ask: Can you share its Percent Effect? I mean this compound: Cc1nc([C@@H]2C[C@@H]3CCN(C(=O)c4occc4C)C[C@H]3O2)no1
Result: 0

Ask: Sample CCc1nc2n(n1)CC(NCc1ncc(-c3ccccc3)o1)CC2 (configuration not stated) — what was its Percent Effect?
Result: -2.63

Ask: # query: Percent Effect of entry Cc1cc(C)n(C2CN(CC(O)c3ccc(F)cc3)C2)n1 (configuration not stated)
Result: -15.6

====

Give measured Percent Effect for each item. Keep answers brief.
- System Under Test: Chromo domain-containing protein 1 (Saccharomyces cerevisiae (strain ATCC 204508 / S288c) (Baker's yeast))
- Method Notes: ScCHD-1 Enzyme Inhibition Assay; also: in the data most compounds retested in dose-response had high values
- Assay type: functional
- Design: scale not given: direction of the effect not stated beside the values
- Conditions: 30 µM
Hi! Could you send only the number? It should be in %, unit omitted.

Ask: Report Percent Effect for CC(C)CN1CCN(Cc2nc3ccccc3[nH]2)[C@H]2CS(=O)(=O)C[C@H]21 please.
Result: -6.24

Ask: Given the compound CCn1ncc2c1C(COCC1CC1)CN(S(=O)(=O)N(C)C)C2 (stereo unspecified) , what is its reported Percent Effect?
Result: -8.61

Ask: // query Percent Effect value for entry Cc1cnn(CC(C)NCc2nc(-c3cccnc3)no2)c1 (stereo unspecified)
Result: -1.42

Ask: Bench note: what Percent Effect did Cc1cc(C[C@@H]2COC[C@@H]2NC(=O)CN2CCCC2)on1 show?
Result: -4.15

Ask: Percent Effect lookup needed for CCc1nc(CN2CCCN(Cc3cnn(C)c3)CC2)no1 , thanks.
Result: -13.7

Ask: Fill in the blank: the reported Percent Effect of Cc1cc(N2CCN(Cc3ccc(C)o3)CC2)cc(C)n1 is ____.
Result: -6.19

====

- System Under Test: Proteasome subunit beta (Trypanosoma cruzi) (UniProt O96673)
- Sequence (O96673 as listed by the source): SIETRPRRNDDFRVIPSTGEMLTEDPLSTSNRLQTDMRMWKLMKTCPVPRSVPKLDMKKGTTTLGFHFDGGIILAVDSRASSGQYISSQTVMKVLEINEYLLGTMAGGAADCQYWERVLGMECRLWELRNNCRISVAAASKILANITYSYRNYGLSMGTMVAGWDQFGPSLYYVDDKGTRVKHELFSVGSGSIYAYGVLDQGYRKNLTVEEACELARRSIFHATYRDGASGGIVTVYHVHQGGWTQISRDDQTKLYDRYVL
- Method Notes: Trypanosoma cruzi proteasome chymotrypsin-like activity (TcProtChymo) assay. Also: in the data most compounds retested in dose-response had high values.
- Assay type: functional
- Design: scale not given: direction of the effect not stated beside the values
- Conditions: 9.37 µM
# note: exactly 10% is not below, so it is condition not met; use condition met for Percent Effect strictly under it

Ask: Strictly below 10%: is that where Percent Effect of C=C(C)COCCNC(=O)C1CCCN1C(C)=O (configuration not stated) sits?
Result: condition met

Ask: Decide: Percent Effect of Cn1cc(N2CC3(CCN(Cc4cccs4)CC3)OCC2=O)cn1 strictly below 10%?
Result: condition met

Ask: Is it true that Percent Effect reported for CCC(C)NC(=O)Cc1c(C)nc2c(c1C)c(=O)[nH]n2C (configuration not stated) is less than 10%?
Result: condition met

Ask: Criterion: Percent Effect strictly below 10%. Is it met by CCc1noc(C2CCN(C(=O)CCn3nc(C)cc3C)CC2)n1 ?
Result: condition not met

Ask: Consider the compound COc1ccc(CN2CCCC(Cn3nc(C)nc3C)C2)cc1F (configuration not stated) . Is its Percent Effect strictly less than 10%?
Result: condition met

Ask: Hello, I'm reviewing records and need to know if Percent Effect of CC1CN(CC(=O)Nc2cccnc2)CCN1c1nccs1 (configuration not stated) is below 10%. Could you check?
Result: condition met

Ask: Could you please tell me whether Percent Effect recorded for Cc1nc(CNC(=O)NCC(O)c2cccc(Cl)c2)cs1 (configuration not stated) is less than 10%?
Result: condition not met

Ask: Given the entry CSCC(C)(O)CNC(=O)c1cc(Br)ccc1Cl (configuration not stated) , would its reported Percent Effect be below 10%?
Result: condition not met

Ask: is_below(Percent Effect, 10%) for CC(=O)N(Cc1ncc(C)o1)C1CCN(CCNC2CCCCC2)C1 (configuration not stated) ?
Result: condition not met

Ask: Hi there! Is Percent Effect for CCSCCNC(=O)C(c1cccc(C)c1)N(C)C (configuration not stated) below 10%, do you know?
Result: condition not met

Ask: For this compound, is Percent Effect lower than 10%? CCn1ccc(C(=O)NCCCN2CCOCC2)n1
Result: condition not met

Ask: Lab log: compare recorded Percent Effect with 10%; is it strictly lower for Cc1ccc(CNS(=O)(=O)CC2=NC(=O)n3cccc3C2=O)cc1 ?
Result: condition met
